Cited source for all entries: patent US12472168B2

Test system: E. faecalis
MIC values for the compounds below.
endpoint: MIC

INSERT INTO measurements (given_smiles, reported_result) VALUES
  ('COc1c(Cc2cccc3ccccc23)cc(=O)n2c(C(=O)O)c(-c3ccc(OCCC=C(C)C)c(C)c3)sc12', '> 100 µM'),
  ('C=CCCCCOc1ccc(-c2sc3c(OC)c(Cc4cccc5ccccc45)cc(=O)n3c2C(=O)O)cc1C', '> 100 µM'),
  ('COc1c(Cc2cccc3ccccc23)cc(=O)n2c(C(=O)O)c(-c3ccc(OCCCC(C)C)c(C)c3)sc12', '> 100 µM');
